Target: T1, hMEX3B KH1 WT (Homo sapiens, UniProt Q6ZN04 56-144)
T1 sequence: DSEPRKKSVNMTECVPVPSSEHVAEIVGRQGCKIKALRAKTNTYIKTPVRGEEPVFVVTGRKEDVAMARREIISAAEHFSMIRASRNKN
Test: ITC; N 1.91; ITC at 298 K, protein injected into RNA, both dialyzed in the same buffer (composition not in the material; purification SEC buffer 2 M NaCl, 20 mM Tris pH 7.5); NMR at 298 K, 0.1 mM protein
Details: protein: recombinant; tags: modified pET28a without thrombin site (His tag likely retained)
Test readout: Kd (µM)
Numeric answer only, unit µM assumed.

For the binder shown here, CUGAGCUGUAAC (ssRNA) [12-nt RNA] , give the reported Kd.
26.2
